# credit: ChEMBL document CHEMBL4680251

# MEASURED TARGET: UniProt P29597
# Sequence (P29597 whole entry): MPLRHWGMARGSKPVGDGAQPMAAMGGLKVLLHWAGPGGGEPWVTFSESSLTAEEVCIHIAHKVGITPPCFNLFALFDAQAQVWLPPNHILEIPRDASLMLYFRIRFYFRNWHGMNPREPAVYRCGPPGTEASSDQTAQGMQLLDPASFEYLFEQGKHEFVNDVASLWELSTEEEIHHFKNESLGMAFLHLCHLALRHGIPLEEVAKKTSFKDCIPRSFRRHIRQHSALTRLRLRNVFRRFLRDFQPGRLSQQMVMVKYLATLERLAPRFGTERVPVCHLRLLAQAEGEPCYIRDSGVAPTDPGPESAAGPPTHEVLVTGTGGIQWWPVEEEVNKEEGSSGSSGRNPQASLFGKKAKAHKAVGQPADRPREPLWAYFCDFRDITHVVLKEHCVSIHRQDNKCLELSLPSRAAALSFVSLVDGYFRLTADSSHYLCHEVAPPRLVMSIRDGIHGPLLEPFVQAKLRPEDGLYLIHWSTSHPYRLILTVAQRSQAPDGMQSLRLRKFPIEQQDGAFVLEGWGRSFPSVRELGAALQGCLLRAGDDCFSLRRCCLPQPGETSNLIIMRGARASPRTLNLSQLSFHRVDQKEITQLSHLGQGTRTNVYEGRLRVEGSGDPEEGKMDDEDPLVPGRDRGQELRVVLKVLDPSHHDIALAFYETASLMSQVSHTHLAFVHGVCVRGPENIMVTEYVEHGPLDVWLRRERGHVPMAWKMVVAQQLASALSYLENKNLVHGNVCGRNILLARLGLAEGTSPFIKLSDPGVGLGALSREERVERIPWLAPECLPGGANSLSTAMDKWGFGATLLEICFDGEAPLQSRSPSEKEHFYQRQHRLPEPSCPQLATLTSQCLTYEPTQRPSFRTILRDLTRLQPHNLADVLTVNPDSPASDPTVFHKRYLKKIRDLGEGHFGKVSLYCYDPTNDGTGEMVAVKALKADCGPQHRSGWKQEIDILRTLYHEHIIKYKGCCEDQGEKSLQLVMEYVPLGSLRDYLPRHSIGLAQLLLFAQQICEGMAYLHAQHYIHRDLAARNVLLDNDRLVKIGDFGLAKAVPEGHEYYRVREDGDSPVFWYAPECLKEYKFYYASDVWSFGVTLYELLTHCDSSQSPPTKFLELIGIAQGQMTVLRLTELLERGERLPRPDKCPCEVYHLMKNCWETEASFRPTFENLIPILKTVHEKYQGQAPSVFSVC
# TEST DETAILS: Inhibition of human recombinant TYK2 (875 to end residues) using GGMEDIYFEFMGG as substrate incubated for 40 mins in presence of [gamma-33ATP] by radiometric scintillation counting analysis

{"SMILES REPRESENTATION": "C[C@H](CO)n1cnnc1-c1cccc(NC(=O)Nc2cc3ccccn3n2)n1", "IC50 (nM)": 1690}

---

Examples of compounds with documented pIC50 follow.
# MEASURED TARGET: Mitogen-activated protein kinase kinase kinase 5 (Homo sapiens, UniProt Q99683)
# Sequence (Q99683 whole entry): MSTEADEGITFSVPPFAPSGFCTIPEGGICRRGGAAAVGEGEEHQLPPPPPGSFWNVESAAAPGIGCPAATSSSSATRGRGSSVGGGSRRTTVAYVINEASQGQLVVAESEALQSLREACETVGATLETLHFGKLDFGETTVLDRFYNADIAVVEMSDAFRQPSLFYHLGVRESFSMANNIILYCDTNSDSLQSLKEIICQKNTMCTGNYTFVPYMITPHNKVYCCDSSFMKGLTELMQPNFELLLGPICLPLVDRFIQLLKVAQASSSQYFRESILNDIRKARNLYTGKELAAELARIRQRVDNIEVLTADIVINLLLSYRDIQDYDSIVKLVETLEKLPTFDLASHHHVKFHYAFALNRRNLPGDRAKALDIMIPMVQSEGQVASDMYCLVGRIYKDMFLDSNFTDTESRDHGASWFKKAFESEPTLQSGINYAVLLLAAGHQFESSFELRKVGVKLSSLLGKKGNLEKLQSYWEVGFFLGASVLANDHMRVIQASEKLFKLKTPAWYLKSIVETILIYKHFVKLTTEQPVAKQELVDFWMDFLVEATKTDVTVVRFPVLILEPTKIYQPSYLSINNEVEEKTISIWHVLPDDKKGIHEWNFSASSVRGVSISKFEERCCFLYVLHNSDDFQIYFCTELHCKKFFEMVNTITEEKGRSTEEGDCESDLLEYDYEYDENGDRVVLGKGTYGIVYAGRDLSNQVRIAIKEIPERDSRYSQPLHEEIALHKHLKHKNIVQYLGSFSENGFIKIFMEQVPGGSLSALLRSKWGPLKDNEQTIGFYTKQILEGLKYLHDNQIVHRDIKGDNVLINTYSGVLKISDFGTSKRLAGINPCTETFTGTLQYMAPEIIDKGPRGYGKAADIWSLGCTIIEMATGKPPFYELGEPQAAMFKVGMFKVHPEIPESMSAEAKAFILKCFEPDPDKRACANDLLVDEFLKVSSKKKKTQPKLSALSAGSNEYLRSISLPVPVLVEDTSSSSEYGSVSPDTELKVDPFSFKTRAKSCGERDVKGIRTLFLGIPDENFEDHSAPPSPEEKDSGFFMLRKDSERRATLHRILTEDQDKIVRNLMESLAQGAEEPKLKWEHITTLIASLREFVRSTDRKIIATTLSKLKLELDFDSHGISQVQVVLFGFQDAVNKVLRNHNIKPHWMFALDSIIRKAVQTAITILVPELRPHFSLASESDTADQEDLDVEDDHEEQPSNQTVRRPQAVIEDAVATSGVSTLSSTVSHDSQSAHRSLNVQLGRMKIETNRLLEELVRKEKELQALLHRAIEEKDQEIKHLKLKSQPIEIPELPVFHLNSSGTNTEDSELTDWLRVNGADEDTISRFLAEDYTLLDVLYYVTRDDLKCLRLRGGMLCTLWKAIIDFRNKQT
# TEST DETAILS: Inhibition of ASK1 (unknown origin)
pIC50: −log10 of the molar value.
ASSAY READOUT: pIC50

{"SMILES REPRESENTATION": "CC(C)n1cnnc1-c1cccc(NC(=O)Nc2cncc3ccccc23)n1", "LT GT EQ": "<", "MEASURED": 5.00}
{"SMILES REPRESENTATION": "Cc1cc(NC(=O)Nc2cccc(-c3nncn3C(C)C)n2)nn1C", "LT GT EQ": "=", "MEASURED": 6.85}
{"SMILES REPRESENTATION": "C[C@H](CO)n1cnnc1-c1cccc(NC(=O)Nc2ncc3ccccc3n2)n1", "LT GT EQ": "=", "MEASURED": 7.09}
{"SMILES REPRESENTATION": "CC(C)n1cnnc1-c1cccc(NC(=O)Nc2cnc3ccccn23)n1", "LT GT EQ": "<", "MEASURED": 5.00}
{"SMILES REPRESENTATION": "CC(C)n1cnnc1-c1cccc(NC(=O)Nc2cccc(-c3cnn(C)c3)c2)n1", "LT GT EQ": "=", "MEASURED": 5.67}
{"SMILES REPRESENTATION": "CC(C)n1cnnc1-c1cccc(NC(=O)Nc2cnc3ccccc3n2)n1", "LT GT EQ": "=", "MEASURED": 7.24}
{"SMILES REPRESENTATION": "CC(C)n1cnnc1-c1cccc(NC(=O)Nc2ncnc3ccccc23)n1", "LT GT EQ": "=", "MEASURED": 7.15}
{"SMILES REPRESENTATION": "CC(C)n1cnnc1-c1cccc(N(C)C(=O)N(C)c2cc3ccccn3n2)n1", "LT GT EQ": "=", "MEASURED": 5.18}
{"SMILES REPRESENTATION": "CC(C)c1cc(NC(=O)Nc2cccc(-c3nncn3C(C)C)n2)[nH]n1", "LT GT EQ": "=", "MEASURED": 6.41}
{"SMILES REPRESENTATION": "CC(C)n1cnnc1-c1cccc(NC(=O)Nc2cccnc2)n1", "LT GT EQ": "=", "MEASURED": 5.92}
